system: KM12; assay: NCI tumour cell line growth inhibition, 48 h
Calls of active or inactive are those of the source. Cut-off read from the data, not from the text of the source: active = GI50 up to about 1.1 µM and inactive = higher.
Classes used: active, inactive

1) CC(C)(C)OC(=O)NC(CS(=O)(=O)O)C(=O)O (configuration not stated) : inactive
2) O=C(O)c1ccc(O)c(/N=N/c2cc(S(=O)(=O)O)c3ccccc3c2O)c1 : inactive
3) Oc1ccc(Cl)cc1C1=NC(/N=C\c2ccccc2)=NC(c2ccccc2)C1 (configuration not stated) : inactive
4) CCCCNC(=O)c1cc(S(=O)(=O)n2ccnc2O)c(SC)cc1Cl : inactive
5) O=C(COC(=O)c1ccccc1)c1ccc(Br)cc1 : inactive
6) c1ccc2c(c1)CC1c3[nH]c4ccccc4c3CCN21 (configuration not stated) : inactive
7) C=CCOC1OC(CO[Si](C)(C)C(C)(C)C)C(OCc2ccccc2)C(OCc2ccccc2)C1OCc1ccccc1 (configuration not stated) : inactive
8) Cn1c(=O)c(C(=O)NC23CC4CC(CC(C4)C2)C3)c(O)c2ccccc21 : inactive
9) O=[N+]([O-])c1ccc(C2NC(=S)NC3c4cc([N+](=O)[O-])ccc4CCCC23)cc1 (configuration not stated) : inactive
10) O=C(NNC(=S)Nc1ccccc1)c1nsc2ccccc12 : inactive
11) CC(=O)c1ccccc1NP(=O)(c1ccccc1)c1ccccc1 : inactive
12) COc1ccc2nc3c4c(nccc4c2c1)-c1ncccc1C3=O : active
13) O=C(CSC1=NC(=O)C2(NN1)c1ccccc1-c1ccccc12)NC(=S)Nc1ccccc1 : inactive
14) O=C1c2ccc(O)c(O)c2C(=O)c2c(O)ccc(O)c21 : inactive
15) CCOP(=O)(/C=C/n1cnc2c(=O)n(C(C)=O)c(N)nc21)OCC : inactive
16) Clc1ccc(-c2c(C3=NCCN3)nnn2-c2ccc(Cl)cc2)cc1 : inactive
17) CN(C)c1ccc(/C=C/C(=O)CC(=O)/C=C/c2ccc(N(C)C)cc2)cc1 : inactive
18) COc1ccc(/C=C2\CCC/C(=C\c3ccc(O)c(CN4CCCCC4)c3)C2=O)cc1 : inactive
19) Nc1ncnc2c1ncn2C1OC(CSC(F)(F)F)C(O)C1O (configuration not stated) : inactive
20) CCCSS[C@H]1NC(=O)[C@H]1NC(=O)COc1ccccc1 : inactive
21) O=C1c2cccc(O)c2C(=O)c2c(O)cccc21 : inactive
22) CCc1cc2c(oc3cc(C)ccc32)c(=O)n1C : inactive

====

system: HOP-92; assay: NCI tumour cell line growth inhibition, 48 h
The source made the active and inactive calls. No stated cut-off is given here; in the data, active = GI50 up to about 1.1 µM and inactive = higher.
measure name: GI50

1. NC(=O)C(NC=O)c1ccccc1 (stereo unspecified) : > 100 µM (inactive)
2. CC1(C)C(=O)N(O)C(C)(C)N1N=O : > 10 µM (inactive)
3. COC1(OC)CC(CO)(CNc2nc(N)nc(Cl)c2/C=N\O)C1 : 13.6 µM (inactive)
4. C=C(C(=C)N1N=NC2C3CCC(C3)C21)N1N=NC2C3CCC(C3)C21 (stereo unspecified) : > 100 µM (inactive)
5. NC(=O)N/N=C1\CCCCc2ccccc21 : > 10 µM (inactive)
6. COC(=O)C(=O)C(C(=O)C(=O)Nc1ccc(F)cc1)c1nc2ccc([N+](=O)[O-])cc2nc1O (stereo unspecified) : > 100 µM (inactive)

====

system: NCI-H522; assay: NCI tumour cell line growth inhibition, 48 h
The source made the active and inactive calls. No stated cut-off is given here; in the data, active = GI50 up to about 1.1 µM and inactive = higher.
// reported GI50 for each item listed
measure name: GI50

1) COC(=O)c1ccccc1CC(Cc1ccccc1)C(=O)OC (stereo not given) : 50.6 µM (inactive)
2) COc1cc(/C=C2\CN(C)CC3=C2N=C(S)NC3c2cc(OC)c(OC)c(OC)c2)cc(OC)c1OC (stereo not given) : 54.7 µM (inactive)
3) c1cc2cc3c4c5c(cc6ccc7cc8cc9c%10c8c8c7c6c5c8c5c%10c(c1C9N1CCOCCOCCOCCOCCOCC1)c2c45)C3 (stereo not given) : > 100 µM (inactive)
4) CNS(=O)(=O)NN(C)S(=O)(=O)c1ccc2ccccc2c1 : > 100 µM (inactive)
5) O=C1c2cccc(O)c2C(=O)c2c(O)cccc21 : 62.7 µM (inactive)
